- System: CAL-51
- Protocol notes: normalised response (% of control), CellTiter-Glo; higher = more viable cells (100 = DMSO, 0 = benzethonium chloride kill control)
- Assay context: incubation time: 72 h

[
  {
    "Compound": "NC1(c2ccc(-c3nc4ccn5c(=O)[nH]nc5c4cc3-c3ccccc3)cc2)CCC1 [MK-2206] (100 nM)",
    "Measurement unit": "%",
    "normalised response": 95.1
  },
  {
    "Compound": "Cn1nnc2c(C(N)=O)ncn2c1=O [Temozolomide] (1 nM)",
    "Measurement unit": "%",
    "normalised response": 92.3
  },
  {
    "Compound": "O=C(O)CC[C@H]1CC[C@@](c2cc(F)ccc2F)(S(=O)(=O)c2ccc(Cl)cc2)CC1 [MK-0752] (100 nM)",
    "Measurement unit": "%",
    "normalised response": 113
  },
  {
    "Compound": "Cn1nnc2c(C(N)=O)ncn2c1=O [Temozolomide] (1000 nM)",
    "Measurement unit": "%",
    "normalised response": 76.4
  },
  {
    "Compound": "NC1(c2ccc(-c3nc4ccn5c(=O)[nH]nc5c4cc3-c3ccccc3)cc2)CCC1 [MK-2206] (0.1 nM)",
    "Measurement unit": "%",
    "normalised response": 87.9
  },
  {
    "Compound": "NC(=O)c1cccc2cn(-c3ccc([C@@H]4CCCNC4)cc3)nc12 [MK-4827] (10 nM)",
    "Measurement unit": "%",
    "normalised response": 125
  },
  {
    "Compound": "Cn1nnc2c(C(N)=O)ncn2c1=O [Temozolomide] (10 nM)",
    "Measurement unit": "%",
    "normalised response": 110
  },
  {
    "Compound": "CC[C@H](CC#N)OC(=O)N[C@@H](C)c1cccc(NC(=O)Nc2ccc(-c3cnco3)c(OC)c2)c1 [AVN944] (10 nM)",
    "Measurement unit": "%",
    "normalised response": 122
  },
  {
    "Compound": "N[C@@H](Cc1ccc(N(CCCl)CCCl)cc1)C(=O)O [Melphalan] (12.5 nM)",
    "Measurement unit": "%",
    "normalised response": 75.2
  },
  {
    "Compound": "COc1cc2c(Oc3ccc(NC(=O)C4(C(=O)Nc5ccc(F)cc5)CC4)cc3F)ccnc2cc1OCCCN1CCOCC1 [Foretinib] (1 nM)",
    "Measurement unit": "%",
    "normalised response": 106
  },
  {
    "Compound": "CCc1c(C(=O)C(N)=O)c2c(OCC(=O)O)cccc2n1Cc1ccccc1 [Varespladib] (10 nM)",
    "Measurement unit": "%",
    "normalised response": 107
  },
  {
    "Compound": "O=NN(CCCl)C(=O)NC1CCCCC1 [Lomustine] (1000 nM)",
    "Measurement unit": "%",
    "normalised response": 112
  }
]
